Numbers sourced from ChEMBL document CHEMBL1135409.

- test.system: Endothelin receptor type B (Sus scrofa)
- Sequence (P35463 whole entry): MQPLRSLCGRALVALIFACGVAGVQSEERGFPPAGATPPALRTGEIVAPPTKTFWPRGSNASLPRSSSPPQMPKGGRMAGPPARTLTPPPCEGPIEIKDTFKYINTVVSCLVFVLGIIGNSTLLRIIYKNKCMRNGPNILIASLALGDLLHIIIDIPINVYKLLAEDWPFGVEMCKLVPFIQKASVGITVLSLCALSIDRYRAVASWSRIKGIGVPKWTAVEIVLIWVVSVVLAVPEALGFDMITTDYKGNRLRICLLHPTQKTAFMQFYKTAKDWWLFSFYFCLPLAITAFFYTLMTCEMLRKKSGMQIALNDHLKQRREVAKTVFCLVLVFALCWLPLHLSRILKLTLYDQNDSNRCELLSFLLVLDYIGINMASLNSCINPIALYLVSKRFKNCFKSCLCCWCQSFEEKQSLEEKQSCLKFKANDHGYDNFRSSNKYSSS
- protocol.text: Binding affinity to endothelin B receptor measured by inhibition of [125I]ET-3 binding recombinant pig ET-B receptor expressed in COS-7 cells
Rule: measured IC50 below 3000 nM gets 1; anything equal to or greater than 3000 nM gets 0.

[[record]]
compound = "COc1ccc(C2=C(C(=O)O)C(c3ccc4c(c3)OCO4)Oc3ccc(OC)cc32)cc1 (configuration not stated)"
category = 1

[[record]]
compound = "CCCCOc1ccc2c(c1)C(c1ccc3c(c1)OCO3)=C(C(=O)O)C(c1ccc(OC)c(OC)c1)O2 (configuration not stated)"
category = 1

[[record]]
compound = "CCOc1ccc2c(c1)C(c1ccc(OC)cc1)=C(C(=O)O)C(c1ccc3c(c1)OCO3)O2 (configuration not stated)"
category = 1

[[record]]
compound = "COc1ccc([C@@H]2c3cc(OC(C)C)ccc3O[C@H](c3ccc4c(c3)OCO4)[C@H]2C(=O)O)cc1"
category = 0

[[record]]
compound = "O=C(O)C1=C(c2ccc(Cl)cc2)c2ccccc2OC1c1ccc2c(c1)OCO2 (configuration not stated)"
category = 0

[[record]]
compound = "COc1ccccc1C1=C(C(=O)O)C(c2ccc3c(c2)OCO3)Oc2ccccc21 (configuration not stated)"
category = 0

[[record]]
compound = "COc1ccc(C2=C(C(=O)O)C(c3ccc4c(c3)OCO4)Oc3c(OC)cccc32)cc1 (configuration not stated)"
category = 0

[[record]]
compound = "CCCOc1ccc2c(c1)C(c1ccc(OC)cc1)=C(C(=O)O)C(c1ccc3c(c1)OCO3)O2 (configuration not stated)"
category = 1

[[record]]
compound = "CCCCCOC1=C(C(=O)O)C(c2ccc3c(c2)OCO3)Oc2ccccc21 (configuration not stated)"
category = 1

[[record]]
compound = "CCCCOc1ccc2c(c1)C(c1ccc3c(c1)OCO3)=C(C(=O)O)C(c1ccc(OC)cc1)O2 (configuration not stated)"
category = 1

[[record]]
compound = "CCCCOC1=C(C(=O)O)C(c2ccc3c(c2)OCO3)Oc2ccc(OCC)cc21 (configuration not stated)"
category = 1

[[record]]
compound = "CC(C)c1ccc(C2=C(C(=O)O)C(c3ccc4c(c3)OCO4)Oc3ccccc32)cc1 (configuration not stated)"
category = 1

[[record]]
compound = "COc1cccc(C2=C(C(=O)O)C(c3ccc4c(c3)OCO4)Oc3ccc(OC(C)C)cc32)c1 (configuration not stated)"
category = 1

[[record]]
compound = "CCCCOC1=C(C(=O)O)C(c2ccc3c(c2)OCO3)Oc2ccc(OCCC)cc21 (configuration not stated)"
category = 1

[[record]]
compound = "CCCCOC1=C(C(=O)O)C(c2ccc3c(c2)OCO3)Oc2cccc(OCCC)c21 (configuration not stated)"
category = 0

[[record]]
compound = "CC(C)Oc1ccc2c(c1)C=C(C(=O)O)C(c1ccc3c(c1)OCO3)O2 (configuration not stated)"
category = 0

[[record]]
compound = "Cc1ccc(C2=C(C(=O)O)C(c3ccc4c(c3)OCO4)Oc3ccccc32)cc1 (configuration not stated)"
category = 0

[[record]]
compound = "COc1ccc(C2=C(C(=O)O)C(c3ccc4c(c3)OCO4)Oc3ccccc32)cc1 (configuration not stated)"
category = 1

[[record]]
compound = "CC(C)Oc1ccc2c(c1)C(OCCCC#N)=C(C(=O)O)C(c1ccc3c(c1)OCO3)O2 (configuration not stated)"
category = 0

[[record]]
compound = "COc1ccc(C2=C(C(=O)O)C(c3ccc4c(c3)OCO4)Oc3ccc(C(C)C)cc32)cc1 (configuration not stated)"
category = 1

[[record]]
compound = "CCCCOc1ccc2c(c1)C(c1ccc(OC)cc1)=C(C(=O)O)C(c1ccc3c(c1)OCO3)O2 (configuration not stated)"
category = 1

[[record]]
compound = "COc1ccccc1C1=C(C(=O)O)C(c2ccc3c(c2)OCO3)Oc2ccc(OC(C)C)cc21 (configuration not stated)"
category = 0

[[record]]
compound = "CCCOc1cccc2c1C(c1ccc(OC)cc1)=C(C(=O)O)C(c1ccc3c(c1)OCO3)O2 (configuration not stated)"
category = 1

[[record]]
compound = "CCCOc1ccc2c(c1)C(c1ccc3c(c1)OCO3)=C(C(=O)O)C(c1ccc3c(c1)OCO3)O2 (configuration not stated)"
category = 1

[[record]]
compound = "COC1=C(C(=O)O)[C@@H](c2ccc3c(c2)OCO3)Oc2ccc(OC(C)C)cc21"
category = 0

[[record]]
compound = "CCCCOc1ccc2c(c1)C(c1ccc3c(c1)OCO3)=C(C(=O)O)C(c1cccc(OC)c1)O2 (configuration not stated)"
category = 1

[[record]]
compound = "CC(C)Oc1ccc2c(c1)C(Cl)=C(C(=O)O)C(c1ccc3c(c1)OCO3)O2 (configuration not stated)"
category = 0

[[record]]
compound = "CCCCOC1=C(C(=O)O)C(c2ccc3c(c2)OCO3)Oc2ccc(OCCCC)cc21 (configuration not stated)"
category = 1

[[record]]
compound = "CCCCOc1ccc2c(c1)C(c1ccc3c(c1)OCO3)=C(C(=O)O)C(c1ccc(OC)cc1OC)O2 (configuration not stated)"
category = 1

[[record]]
compound = "CCCCCCCOC1=C(C(=O)O)C(c2ccc3c(c2)OCO3)Oc2ccc(OC(C)C)cc21 (configuration not stated)"
category = 1

[[record]]
compound = "COc1ccc(CCOC2=C(C(=O)O)C(c3ccc4c(c3)OCO4)Oc3ccc(OC(C)C)cc32)cc1 (configuration not stated)"
category = 1

[[record]]
compound = "CC(C)Oc1ccc2c(c1)C=C(C(=O)O)[C@H](c1ccc3c(c1)OCO3)O2"
category = 0

[[record]]
compound = "CC(C)Oc1ccc2c(c1)C=C(C(=O)O)[C@@H](c1ccc3c(c1)OCO3)O2"
category = 0

[[record]]
compound = "CC(C)Oc1ccc2c(c1)C(c1ccc3c(c1)OCO3)=C(C(=O)O)C(c1ccc3c(c1)OCO3)O2 (configuration not stated)"
category = 1

[[record]]
compound = "CC(C)Oc1ccc2c(c1)C(c1ccc(C(C)C)cc1)=C(C(=O)O)C(c1ccc3c(c1)OCO3)O2 (configuration not stated)"
category = 1

[[record]]
compound = "CC(C)Oc1ccc2c(c1)C(c1ccc(OCc3ccccc3)cc1)=C(C(=O)O)C(c1ccc3c(c1)OCO3)O2 (configuration not stated)"
category = 1

[[record]]
compound = "CCCCOC1=C(C(=O)O)C(c2ccc3c(c2)OCO3)Oc2cc(OCCC)ccc21 (configuration not stated)"
category = 1

